molecular target: human alpha 7-wt nAChR (Homo sapiens, UniProt P36544); construct: expressed in transfected cells; assay: Ca2+ flux imaging (FDSS) (protocol B); type: cell-based; conditions: Ca2+ assay as described in D.1; read-out: pEC50 (converted)
Sequence (P36544 23-502): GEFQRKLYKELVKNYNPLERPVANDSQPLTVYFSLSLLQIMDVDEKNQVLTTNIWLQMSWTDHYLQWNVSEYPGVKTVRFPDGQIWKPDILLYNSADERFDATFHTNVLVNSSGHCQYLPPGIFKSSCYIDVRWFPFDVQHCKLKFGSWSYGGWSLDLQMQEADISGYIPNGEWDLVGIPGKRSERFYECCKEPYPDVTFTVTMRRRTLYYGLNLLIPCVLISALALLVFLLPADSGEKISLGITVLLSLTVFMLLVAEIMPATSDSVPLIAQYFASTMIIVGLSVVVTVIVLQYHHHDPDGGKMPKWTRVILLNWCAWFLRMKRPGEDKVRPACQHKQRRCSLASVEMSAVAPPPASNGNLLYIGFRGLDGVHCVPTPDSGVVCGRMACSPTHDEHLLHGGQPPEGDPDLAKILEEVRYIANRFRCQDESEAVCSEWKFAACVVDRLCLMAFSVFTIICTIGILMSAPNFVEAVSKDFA
Property name: log10 EC50 (log10 of the value in nM)

[[record]]
molecule = "Cc1cc(-c2ccc(C3C[C@@H](C)O[C@@H](C)C3)c(F)c2CNC(=O)C2CC2)cc(C)n1 (relative stereo) [Compound 54]"
property_name = "log10 EC50"
assay_value = 3.20

[[record]]
molecule = "Cc1cc(-c2c(F)cc(N3C[C@@H](C)O[C@@H](C)C3)cc2CNC(=O)CC2CC2)ccn1 [Compound 87]"
property_name = "log10 EC50"
assay_value = 1.90

[[record]]
molecule = "Cc1cc(-c2ccc(N3C[C@@H](C)O[C@@H](C)C3)cc2CNC(=O)c2ccc(F)cc2C)ccn1 [Compound 11]"
property_name = "log10 EC50"
assay_value = 0.97

[[record]]
molecule = "Cc1cc(-c2c(F)cc(N3C[C@@H](C)O[C@@H](C)C3)cc2CNC(=O)CC(C)C)ccn1 [Compound 92]"
property_name = "log10 EC50"
assay_value = 1.10

[[record]]
molecule = "Cc1cc(-c2c(F)cc(N3C[C@@H](C)O[C@@H](C)C3)cc2CNC(=O)C(C)C)ccn1 [Compound 89]"
property_name = "log10 EC50"
assay_value = 1.86

[[record]]
molecule = "Cc1cc(-c2ccc(N3CCOCC3)cc2CNC(=O)C(C)C)cc(C)n1 [Compound 29]"
property_name = "log10 EC50"
assay_value = 2.91

[[record]]
molecule = "Cc1cc(-c2ccc(N3C[C@@H](C)O[C@@H](C)C3)c(F)c2CNC(=O)C2CCCCC2)cc(C)n1 [Compound 46]"
property_name = "log10 EC50"
assay_value = 1.96

